The measured values listed here are drawn from the RNAGym collection of RNA variant scans (doi:10.7554/elife.80360).

B1: Hairpin Ribozyme (parent)
chain: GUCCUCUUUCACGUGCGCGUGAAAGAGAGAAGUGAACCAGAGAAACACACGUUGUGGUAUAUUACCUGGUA

- Variants of: B1
- Protocol Description: self-cleavage, relative activity (ratio to wild type); higher = more cleavage; co-transcriptional
Please mark Fulfilled if the recorded self-cleavage is equal to or greater than 0.3, and Not fulfilled if it falls below.

{"Seq String": "GUCCUCUUUCACGUGCGCGUGAAAGAGAGAAGUGAACCAGAGAAACACACUUUGUGGUAUGUUACCUGGUA [G51U A61G]", "Assigned Label": "Not fulfilled"}
{"Seq String": "GUCCUCUUUCACGUGCGCGUUAGAGAGAGAAGUGAACCAGAGAAACACACGUUGUGGUAUAUUACCUGGUA [G21U A23G]", "Assigned Label": "Fulfilled"}
{"Seq String": "GUCCUCUUUCACGUGCGCGUGAAAGAGAGAAGUGAACCAGAGAUACACACGUUGUGGUAUAUUUCCUGGUA [A44U A64U]", "Assigned Label": "Not fulfilled"}

Record GUCCUCUUUCACGUGCGCGUGAAAGGGAGAAGUGAACCAGAAAAACACACGUUGUGGUAUAUUACCUGGUA [A26G G42A] ; criterion: self-cleavage no lower than 0.3. Met?
Not fulfilled

Record GUCCUCUUUCACGUGUGCGUGAAAGAGAGAAAUGAACCAGAGAAACACACGUUGUGGUAUAUUACCUGGUA [C16U G32A] ; criterion: self-cleavage no lower than 0.3. Met?
Not fulfilled

Record GUCCUCUUUCACGUGCCCGUGAAAGAGAGAAGUGAACCAGAGAAACACGCGUUGUGGUAUAUUACCUGGUA [G17C A49G] ; criterion: self-cleavage no lower than 0.3. Met?
Fulfilled

Record GUCCUCUUUCACAUGCGCGUGAAAGAGAGAAGUGAACCAGAGAAACACACGUUGCGGUAUAUUACCUGGUA [G13A U55C] ; criterion: self-cleavage no lower than 0.3. Met?
Not fulfilled

Record GUCCUCUUUCACAUGCGCGUGAAAGAGAGAAGUGAACCAGAGAAACACACGUUGUGGUAUAUUACUUGGUA [G13A C66U] ; criterion: self-cleavage no lower than 0.3. Met?
Fulfilled

Record GUCCUCUUUCACGUGCGCGUGAAGGAGAGAAGUGAACCAGAGAAACACACGUUGUUGUAUAUUACCUGGUA [A24G G56U] ; criterion: self-cleavage no lower than 0.3. Met?
Not fulfilled
